tested on: 786-0; experiment: NCI tumour cell line growth inhibition, 48 h
Calls of active or inactive are those of the source. No stated cut-off is given here; in the data, active = GI50 up to about 1.1 µM and inactive = higher.
quantityKind: GI50

Please review the following examples before continuing.
[[record]]
compound = "O=C(OCCNC(=O)N1CC1)OCCNC(=O)N1CC1"
measuredvalue = "> 10 µM (inactive)"

[[record]]
compound = "O=C1CC[C@@H](NC(=O)Cc2ccccc2)C(=O)N1"
measuredvalue = "> 100 µM (inactive)"

[[record]]
compound = "O=C1C=C(Nc2ccc(Br)cc2)c2ccccc2/C1=N/O"
measuredvalue = "9.73 µM (inactive)"

[[record]]
compound = "COc1cccc(C2c3cc4c(cc3OC(N3CCOCC3)C2C)OCO4)c1O (centres undefined)"
measuredvalue = "5.6 µM (inactive)"

[[record]]
compound = "[Se]=P(c1ccccc1)(c1ccccc1)c1ccc(C(c2ccccc2)=P(c2ccccc2)(c2ccccc2)c2ccccc2)cc1"
measuredvalue = "1.2 µM (inactive)"


Can you give me GI50 for all of these, one by one?
1. O=C1N=C(Nc2ccccc2Cl)SC1C(=O)Nc1ccc([N+](=O)[O-])cc1[N+](=O)[O-] (centres undefined)
2. O=Nc1ccc(O)c2ncccc12
3. O=C(CCN1CCCCC1)c1csc2ccccc12
4. NCCOCn1cc(Cc2cccc(OCc3ccccc3)c2)c(=O)[nH]c1=O

Response:
["> 100 µM (inactive)", "4.2 µM (inactive)", "50.1 µM (inactive)", "53.6 µM (inactive)"]

* * *

test system: MCF7; assay: NCI tumour cell line growth inhibition, 48 h
Activity calls are given as the source filed them. No stated cut-off is given here; in the data, active = GI50 up to about 1.1 µM and inactive = higher.
Hi! Could you answer with just one of these? active, inactive

Request: Which outcome was assigned to COc1ccc(C(=O)c2sc(Nc3ccc(Cl)cc3)nc2N)cc1 in this test?
Response: inactive

* * *

tested on: CAKI-1; assay: NCI tumour cell line growth inhibition, 48 h
Activity calls are given as the source filed them. Rule as the data show it: active = GI50 up to about 1.1 µM and inactive = higher.
Consider the following molecules; for each one, report its GI50.

Please review the following examples before continuing.
[[record]]
smilesstructure = "CC(=O)NNc1nc(C)c(C(=O)/C=C/C=C/c2ccccc2)s1"
quantitykind = "GI50"
measuredvalue = "> 100 µM (inactive)"

[[record]]
smilesstructure = "C1=N\\CCNCC/N=C/c2ccccc2OCc2cccc(n2)COc2ccccc2/1"
quantitykind = "GI50"
measuredvalue = "42.8 µM (inactive)"

[[record]]
smilesstructure = "O=C(/C=C/c1ccsc1)c1ccc(Cl)cc1"
quantitykind = "GI50"
measuredvalue = "> 100 µM (inactive)"

[[record]]
smilesstructure = "COC(=O)c1cc(C#N)[nH]c1-c1ccsc1"
quantitykind = "GI50"
measuredvalue = "51.2 µM (inactive)"

[[record]]
smilesstructure = "COC(=O)CCC(=O)NC1=C(Nc2ccccc2)C(=O)c2ccccc2C1=O"
quantitykind = "GI50"
measuredvalue = "14.4 µM (inactive)"


Request: Give CAKI-1 GI50 for Cc1ccc(-n2cc(-c3ccc(Cl)cc3)c(C#N)c2N)cc1
Response: 21.2 µM (inactive)

* * *

tested on: NCI-H23; assay: NCI tumour cell line growth inhibition, 48 h
Activity calls are given as the source filed them. Rule as the data show it: active = GI50 up to about 1.1 µM and inactive = higher.
Consider the following compounds; for each one, report its GI50.

[[record]]
compound = "Cc1ccccc1[P+](C)(c1ccccc1C)c1ccccc1C"
quantitykind = "GI50"
measuredvalue = "10.3 µM (inactive)"

[[record]]
compound = "O=C(CC1(O)C(=O)Nc2c(Cl)ccc(Cl)c21)c1ccc(Cl)cc1Cl (centres undefined)"
quantitykind = "GI50"
measuredvalue = "19.9 µM (inactive)"

[[record]]
compound = "Cn1nc(C(=O)N2CC(CCl)c3c2cc([N+](=O)[O-])c2ccccc32)cc1NC(=O)Nc1cc(C(=O)N2CC(CCl)c3c2cc([N+](=O)[O-])c2ccccc32)nn1C (centres undefined)"
quantitykind = "GI50"
measuredvalue = "> 100 µM (inactive)"

[[record]]
compound = "COc1cc(/C=C(\\NC(=O)c2ccccc2)c2nc3c(O)nc(S)nc3[nH]2)cc(OC)c1OC"
quantitykind = "GI50"
measuredvalue = "> 100 µM (inactive)"

[[record]]
compound = "Brc1ccc(C2SCc3nc4ccccc4n32)cc1 (centres undefined)"
quantitykind = "GI50"
measuredvalue = "2.75 µM (inactive)"


Can you give me GI50 for all of these, one by one?
1. Nc1nc(Cl)cc(OCC2(CO)CCCC2)n1
2. CCCCC1(C(NC(=O)c2ccccc2Cl)c2ccncc2)C(=O)N(c2ccccc2)N(c2ccccc2)C1=O (centres undefined)
3. O=C1C2C(C(=O)N1Cc1ccccc1)N(Cc1ccccc1)C(=O)N2Cc1ccccc1 (centres undefined)

Response:
1. > 100 µM (inactive)
2. 44.7 µM (inactive)
3. > 100 µM (inactive)

Request: Consider the compound shown here: COc1cnc2cc(C(=O)O)c3c([N+](=O)[O-])cccc3c2c1 What is its recorded GI50?
Response: > 100 µM (inactive)
